# Study system: human recombinant mGluR5 (Homo sapiens, UniProt P41594)
# Sequence (P41594 21-1212): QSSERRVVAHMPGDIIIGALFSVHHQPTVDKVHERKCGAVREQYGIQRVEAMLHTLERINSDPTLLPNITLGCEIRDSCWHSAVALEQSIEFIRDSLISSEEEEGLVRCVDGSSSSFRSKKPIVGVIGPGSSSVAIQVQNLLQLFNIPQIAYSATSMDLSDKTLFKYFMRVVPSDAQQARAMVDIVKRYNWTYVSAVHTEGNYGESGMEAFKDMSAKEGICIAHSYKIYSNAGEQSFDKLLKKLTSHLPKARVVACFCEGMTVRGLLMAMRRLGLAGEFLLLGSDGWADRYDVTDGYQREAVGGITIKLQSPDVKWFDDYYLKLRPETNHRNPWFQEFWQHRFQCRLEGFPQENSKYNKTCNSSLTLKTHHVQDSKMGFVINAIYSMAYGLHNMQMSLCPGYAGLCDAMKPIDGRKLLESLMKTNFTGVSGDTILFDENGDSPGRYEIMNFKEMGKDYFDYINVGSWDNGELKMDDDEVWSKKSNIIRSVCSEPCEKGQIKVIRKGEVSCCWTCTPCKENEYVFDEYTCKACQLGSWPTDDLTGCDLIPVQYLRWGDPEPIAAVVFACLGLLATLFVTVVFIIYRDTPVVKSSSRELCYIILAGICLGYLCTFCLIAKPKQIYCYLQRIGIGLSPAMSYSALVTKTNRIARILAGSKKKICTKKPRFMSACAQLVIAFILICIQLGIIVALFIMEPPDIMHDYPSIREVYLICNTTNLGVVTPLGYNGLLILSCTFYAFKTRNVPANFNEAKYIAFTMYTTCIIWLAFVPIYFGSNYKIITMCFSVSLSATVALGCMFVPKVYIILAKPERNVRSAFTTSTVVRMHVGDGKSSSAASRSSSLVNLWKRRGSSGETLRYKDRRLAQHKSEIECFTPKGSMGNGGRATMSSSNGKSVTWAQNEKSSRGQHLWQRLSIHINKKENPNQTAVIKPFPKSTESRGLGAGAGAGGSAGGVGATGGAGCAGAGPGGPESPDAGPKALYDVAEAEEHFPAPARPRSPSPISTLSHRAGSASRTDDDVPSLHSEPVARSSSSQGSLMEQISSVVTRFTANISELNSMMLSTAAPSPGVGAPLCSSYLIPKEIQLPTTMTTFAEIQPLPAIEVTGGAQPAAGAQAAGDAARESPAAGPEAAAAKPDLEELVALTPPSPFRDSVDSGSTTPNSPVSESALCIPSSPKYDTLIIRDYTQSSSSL
# Experiment: Positive modulation of mGluR5, calcium based FLIPR assay
# Conditions used: EC50 of the modulation; HEK 293 cell line expressing human recombinant mGluR5; peak height of Ca release fluorescence signal after glutamate at approximately 5% basal stimulation
Recorded metric: EC50 (nM)
# unit: nM | format: bare number

Look over these answered cases.
Smiles structure | Observed measurement
COc1cc(N2CCN(C(=O)Cn3cc(-c4ccc(F)c(C)c4)nc3-c3ccc(F)cc3)CC2)ncn1 | 99
Cc1cc(-c2cn(CC(=O)N3CCN(c4ncccn4)CC3)c(-c3ccc(F)cc3)n2)ccc1F | 31
CCOc1ccc(-c2cn(CC(=O)N3CCN(c4ncccn4)CC3)c(-c3ccccc3)n2)cc1 | 680

API: value(readout=EC50, system=human recombinant mGluR5 (Homo sapiens, UniProt P41594)) for record Cn1cnc2ccc(-c3cn(CC(=O)N4CCN(c5ncccn5)CC4)c(-c4ccccc4)n3)cc21
1530

Try the compound Cc1cc(-c2cn(CC(=O)N3CCN(c4ncccn4)CC3)c(-c3ccccc3)n2)ccc1Cl
54

Now consider Cc1ccc(-c2cn(CC(=O)N3CCN(c4ncccn4)CC3)c(-c3ccccc3)n2)cc1Cl .
48

Consider next the compound COc1ccc(-c2cn(CC(=O)N3CCN(c4ccccn4)CC3)c(-c3ccccc3)n2)cc1 in the same way.
464

Next: Cc1cc(-c2cn(CC(=O)N3CCN(c4ncccn4)CC3)c(-c3ccccc3)n2)cc(C)c1F
38

Next compound: O=C(Cn1cc(-c2ccc(F)cc2)nc1-c1ccccc1)N1CCN(c2ncccn2)CC1
272

Try the compound O=C(Cn1cc(-c2ccc(F)cc2)nc1-c1ccc(F)cc1)N1CCN(c2ccccn2)CC1
244

Same read-out for O=C(Cn1cc(-c2ccc(F)cc2)nc1-c1ccccc1)N1CCN(c2ncnc3[nH]cnc23)CC1 ?
858

Would you mind doing COc1cc(-c2cn(CC(=O)N3CCN(c4ncccn4)CC3)c(-c3ccccc3)n2)ccc1C as well?
29

Consider next the compound COc1cnc(N2CCN(C(=O)Cn3cc(-c4ccc(F)c(C)c4)nc3-c3ccc(F)cc3)CC2)nc1 in the same way.
69

Please answer likewise for O=C(Cn1cc(-c2ccc(F)cc2)nc1-c1ccc(F)cc1)N1CCN(c2ncnc3[nH]cnc23)CC1
262

And for Cc1cccc(-c2cn(CC(=O)N3CCN(c4ncnc5[nH]cnc45)CC3)c(-c3ccccc3)n2)c1 ?
131

What would you report for COc1cnc(N2CCN(C(=O)Cn3cc(-c4ccc(F)c(C)c4)nc3-c3ccccc3)CC2)nc1 ?
53

Try the compound COc1ccnc(N2CCN(C(=O)Cn3cc(-c4ccc(F)cc4)nc3-c3ccccc3)CC2)c1
306

---

# Study system: human recombinant mGluR5 (Homo sapiens, UniProt P41594)
# Experiment: Positive modulation of mGluR5, calcium based FLIPR assay
# Conditions used: EC50 of the modulation; HEK 293 cell line expressing human recombinant mGluR5; peak height of Ca release fluorescence signal after glutamate at approximately 5% basal stimulation
We label by threshold. Values of EC50 strictly beneath 100 nM are satisfied. Values of 100 nM and up are not satisfied.

Worked cases, answers included:
Compound | Label class
Cc1cccc(-c2cn(CC(=O)N3CCN(c4cccnn4)CC3)c(-c3ccccc3)n2)c1 [Example 7.01.34.] | not satisfied
COc1cc(N2CCN(C(=O)Cn3cc(-c4ccc(F)c(C)c4)nc3-c3ccccc3)CC2)ncn1 [Example 7.01.05.] | not satisfied
O=C(Cn1cc(-c2ccc(F)c(Cl)c2)nc1-c1ccccc1)N1CCN(c2ncccn2)CC1 [Example 7.03.05.] | satisfied

Does the reported EC50 of the following compound sit strictly below 100 nM? Cc1cc(-c2cn(CC(=O)N3CCN(c4ccccn4)CC3)c(-c3ccccc3)n2)ccc1F [Example 7.01.06.]
satisfied

For Cc1cc(-c2cn(CC(=O)N3CCN(c4cccnn4)CC3)c(-c3ccccc3)n2)ccc1F [Example 7.01.04.] then?
not satisfied

Same question, COc1ccnc(N2CCN(C(=O)Cn3cc(-c4ccc(F)cc4)nc3-c3ccc(F)cc3)CC2)c1 [Example 7.01.30.] this time
not satisfied

Also check Cc1cc(-c2cn(CC(=O)N3CCN(c4ncnc5[nH]cnc45)CC3)c(-c3ccc(F)cc3)n2)ccc1F [Example 7.01.20.]
satisfied

And the next one, O=C(Cn1cc(-c2ccc(F)c(F)c2)nc1-c1ccccc1)N1CCN(c2ncccn2)CC1 [Example 7.03.10.] ?
not satisfied

What do you get for O=C(Cn1cc(-c2ccccc2)nc1-c1ccccc1)N1CCN(c2ncccn2)CC1 [Example 7.01.01.] ?
not satisfied

Likewise for Cc1cc(-c2cn(CC(=O)N3CCN(c4ncccn4)CC3)c(-c3ccccc3)n2)ccc1F [Example 7.01.03.] ?
satisfied

Queued: CCc1ccc(-c2cn(CC(=O)N3CCN(c4ncccn4)CC3)c(-c3ccccc3)n2)cc1 [Example 7.03.18.]
satisfied

Now this one: COc1ccnc(N2CCN(C(=O)Cn3cc(-c4cccc(C)c4)nc3-c3ccccc3)CC2)c1 [Example 7.01.33.]
not satisfied

Please do the same for COc1cc(-c2cn(CC(=O)N3CCN(c4ncccn4)CC3)c(-c3ccccc3)n2)ccc1F [Example 7.03.17.] as well.
satisfied

Try this compound too: Cc1cc(-c2cn(CC(=O)N3CCN(c4ncc(F)cn4)CC3)c(-c3ccc(F)cc3)n2)ccc1F [Example 7.01.26.]
satisfied

---

# Study system: human recombinant mGluR5 (Homo sapiens, UniProt P41594)
# Experiment: Positive modulation of mGluR5, calcium based FLIPR assay
# Conditions used: EC50 of the modulation; HEK 293 cell line expressing human recombinant mGluR5; peak height of Ca release fluorescence signal after glutamate at approximately 5% basal stimulation
Recorded metric: log10 EC50 (log10 of the value in nM)
log10 EC50, nM

Smiles structure | Observed measurement
Cc1ccc(-c2nc(-c3ccccc3)cn2CC(=O)N2CCN(c3ccccn3)CC2)cc1 | 3.21

# lookup: log10 EC50 of O=C(Cn1cc(-c2cccc(F)c2)nc1-c1ccccc1)N1CCN(c2ncccn2)CC1
2.60

Same read-out for COc1ccnc(N2CCN(C(=O)Cn3cc(-c4ccc(F)c(C)c4)nc3-c3ccccc3)CC2)c1 ?
1.92

For Cc1ccc(-c2cn(CC(=O)N3CCN(c4ncccn4)CC3)c(-c3ccccc3)n2)cc1 then?
1.83

Next up: COc1cc(N2CCN(C(=O)Cn3cc(-c4ccc(F)c(C)c4)nc3C3CCCCC3)CC2)ncn1
3.12

Same read-out for Cc1cccc(-c2cn(CC(=O)N3CCN(c4ccccn4)CC3)c(-c3ccccc3)n2)c1 ?
1.86

Then what about the molecule COc1cc(N2CCN(C(=O)Cn3cc(-c4ccc(F)cc4)nc3-c3ccccc3)CC2)ncn1 ?
2.94

---

# Study system: human recombinant mGluR5 (Homo sapiens)
# Construct: expressed in transfected cells; host or cells: HEK 293 cell line, cultured with tetracycline, hygromycin and geneticin
# Experiment: Positive modulation of mGluR5, calcium based FLIPR assay
# Conditions used: EC50 of the modulation; HEK 293 cell line expressing human recombinant mGluR5; peak height of Ca release fluorescence signal after glutamate at approximately 5% basal stimulation
As shown below, each of these molecules has a reported pEC50 value.
Formally, pEC50 is defined as -log10 of the concentration c, with c in mol/L.

Example cases with answers are listed next.
Smiles structure | pEC50
COc1ccnc(N2CCN(C(=O)Cn3cc(-c4ccc(F)c(C)c4)nc3-c3ccc(F)cc3)CC2)c1 | 7.12
CN1CCOc2cc(-c3cn(CC(=O)N4CCN(c5ncccn5)CC4)c(-c4ccccc4)n3)ccc21 | 6.04
CCOc1cccc(-c2cn(CC(=O)N3CCN(c4ncccn4)CC3)c(-c3ccccc3)n2)c1 | 6.82
Cc1cc(-c2cn(CC(=O)N3CCN(c4ncnc5[nH]cnc45)CC3)c(C3CCCCC3)n2)ccc1F | 6.07
Cc1cc(-c2cn(CC(=O)N3CCN(c4ccccn4)CC3)c(C3CCCCC3)n2)ccc1F | 6.15

Which pEC50 is listed for Cc1cc(-c2cn(CC(=O)N3CCN(c4ncncn4)CC3)c(-c3ccc(F)cc3)n2)ccc1F ?
6.83

Could you do the same for O=C(Cn1cc(-c2ccc3c(c2)CCCO3)nc1-c1ccccc1)N1CCN(c2ncccn2)CC1 , please?
7.21

And then O=C(Cn1cc(-c2ccc(F)cc2)nc1-c1ccc(F)cc1)N1CCN(c2cccnn2)CC1 , what is it?
6.05

Then this molecule: O=C(Cn1cc(-c2cccc(Cl)c2)nc1-c1ccccc1)N1CCN(c2ncccn2)CC1
6.80

// query: Cc1cc(-c2cn(CC(=O)N3CCN(c4cccnn4)CC3)c(-c3ccc(F)cc3)n2)ccc1F
6.84

Now this one: COc1cc(N2CCN(C(=O)Cn3cc(-c4cccc(C)c4)nc3-c3ccccc3)CC2)ncn1
6.71

// same read-out, input: Cc1cc(-c2cn(CC(=O)N3CCN(c4ncccn4)CC3)c(C3CCCCC3)n2)ccc1F
6.34
